Tested on: Leishmania donovani
Test: Antileishmanial activity against Leishmania donovani MHOM/IN/1983/AG83 promastigotes after 4 hrs by MTT assay
Assay type: functional, organism-based
Settings: MHOM/IN/1983/AG83, 4 h
For each record, write down the corresponding IC50.
Number first, unit second.

Data point: `Cc1ccc2cccc(OCCCCCOc3cccc4ccc(C)nc34)c2n1` ; IC50 = 2.8 µg/mL

Data point: `c1cnc2c(OCOc3cccc4cccnc34)cccc2c1` ; IC50 = 2.4 µg/mL

Data point: `Cc1ccc2cccc(OCCCCOc3cccc4ccc(C)nc34)c2n1` ; IC50 = 3.2 µg/mL

Data point: `Cc1ccc2cccc(OCOc3cccc4ccc(C)nc34)c2n1` ; IC50 = 3.4 µg/mL

Data point: `Clc1ccc(OCOc2ccc(Cl)c3cccnc23)c2ncccc12` ; IC50 = 2 µg/mL

Data point: `O=c1ccc2cccc3c2n1CCO3` ; IC50 = 16.5 µg/mL

Data point: `N=C(N)c1ccc(OCCCCCOc2ccc(C(=N)N)cc2)cc1` ; IC50 = 2.1 µg/mL

Data point: `C[C@@H]1[C@H](O)[C@@H](C)/C=C/C=C/C=C/C=C/C=C/C=C/C=C/[C@H](O[C@@H]2O[C@H](C)[C@@H](O)[C@H](N)[C@@H]2O)C[C@@H]2O[C@](O)(C[C@@H](O)C[C@@H](O)[C@H](O)CC[C@@H](O)C[C@@H](O)CC(=O)O[C@H]1C)C[C@H](O)[C@H]2C(=O)O` ; IC50 = 0.16 µg/mL

Data point: `Cc1ccc2cccc(OCCCOc3cccc4ccc(C)nc34)c2n1` ; IC50 = 13.5 µg/mL
